Cited source for all entries: ChEMBL document CHEMBL1201862

- Assay System: 72 kDa type IV collagenase (Homo sapiens, UniProt P08253)
- Sequence (P08253 whole entry): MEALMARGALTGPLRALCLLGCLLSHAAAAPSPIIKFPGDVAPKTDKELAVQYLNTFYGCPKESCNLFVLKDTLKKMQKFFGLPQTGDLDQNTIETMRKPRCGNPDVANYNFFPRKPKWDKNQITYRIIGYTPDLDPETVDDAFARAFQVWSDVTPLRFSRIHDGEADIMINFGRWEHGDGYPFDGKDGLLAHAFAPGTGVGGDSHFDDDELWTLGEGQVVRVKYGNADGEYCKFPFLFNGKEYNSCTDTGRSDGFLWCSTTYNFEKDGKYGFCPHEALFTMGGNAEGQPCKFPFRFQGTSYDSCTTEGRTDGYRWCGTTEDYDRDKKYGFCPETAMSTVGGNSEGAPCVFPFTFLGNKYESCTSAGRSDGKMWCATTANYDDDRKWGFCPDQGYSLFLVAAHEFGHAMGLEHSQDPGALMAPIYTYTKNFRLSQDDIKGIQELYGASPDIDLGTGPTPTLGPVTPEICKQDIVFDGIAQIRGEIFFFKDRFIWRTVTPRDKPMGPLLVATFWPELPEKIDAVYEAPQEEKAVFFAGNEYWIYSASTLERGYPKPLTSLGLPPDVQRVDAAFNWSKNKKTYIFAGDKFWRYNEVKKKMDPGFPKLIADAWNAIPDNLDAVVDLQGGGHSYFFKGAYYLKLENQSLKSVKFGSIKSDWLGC
- Protocol: Dose Response validation of uHTS RPN11 inhibitor hits using a MMP-2 Fluorescence assay.
- Format: functional
Activity calls are given as the source filed them. Cut-off read from the data, not from the text of the source: actives have a measured IC50 and inactives only a lower limit.
# output must be one of active, inactive

# example entries with known answers
O=C(CSc1nnc(SCc2ccc(Cl)cc2)s1)N/N=C/c1c[nH]c2ccccc12    inactive
O=C(O)c1ccc(COc2ccccc2/C=C2/NC(=O)N(c3cccc(Cl)c3)C2=O)cc1    active
O=C(CSc1nc2ccccc2o1)Nc1nc2c(s1)CCCC2    inactive
CCCCCCCCCCCCCCCC[N+](C)(C)Cc1ccc(F)cc1    active
O=C(NCCCN1CCCCCC1)c1ccc(CS(=O)(=O)Cc2ccccc2F)o1    inactive

Could you check what this test reported for COCCNC(=O)c1c(NC(=O)c2nc(SC)ncc2Cl)sc2c1CCCC2 ?
inactive

Try CCN(CC)CCOC(=O)c1ccc(NC=C2C(=O)NC(=O)NC2=O)cc1 next.
inactive
